target: 5-hydroxytryptamine receptor 2A (Homo sapiens); assay: Compound was evaluated for its inverse agonist activity against 5-hydroxytryptamine 2A receptor
Sequence (P28223 whole entry): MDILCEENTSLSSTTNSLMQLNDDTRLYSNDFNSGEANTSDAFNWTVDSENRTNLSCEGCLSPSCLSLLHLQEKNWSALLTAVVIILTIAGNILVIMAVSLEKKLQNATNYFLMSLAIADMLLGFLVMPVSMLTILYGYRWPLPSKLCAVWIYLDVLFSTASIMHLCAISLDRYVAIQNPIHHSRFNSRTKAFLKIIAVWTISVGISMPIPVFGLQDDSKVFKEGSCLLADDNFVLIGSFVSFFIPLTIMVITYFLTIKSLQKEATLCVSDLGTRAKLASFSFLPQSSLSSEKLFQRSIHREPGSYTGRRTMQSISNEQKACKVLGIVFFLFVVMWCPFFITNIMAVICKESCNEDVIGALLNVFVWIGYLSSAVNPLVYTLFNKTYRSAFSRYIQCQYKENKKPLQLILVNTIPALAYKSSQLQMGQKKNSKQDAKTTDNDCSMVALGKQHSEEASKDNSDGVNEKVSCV
Consider the following molecules and their measured pIC50 readings.
// field semantics: pIC50 = negative decimal log of concentration (mol/L)

CC(C)NC(=O)N(C1CCCCCCC1)C1CCN(CCCOc2ccc(F)cc2)CC1
7.10

# lookup: 5-hydroxytryptamine receptor 2A (Homo sapiens) pIC50, key = CCC(=O)N(C1CCCCCCC1)C1CCN(CCCOc2ccc(F)cc2)CC1
7.90

====

target: 5-hydroxytryptamine receptor 2A (Homo sapiens)
Readout kind: Ki (nM)
Report the figure in nM without appending any unit label.

Write down Ki measured for item CCC(=O)N(C1CCCCCCC1)C1CCN(CCCOc2ccc(F)cc2)CC1
20

Measured values drawn from ChEMBL document CHEMBL1132796 for this set.
